- Target or system: Oxytocin receptor (uterin muscle membrane preparation) (Rattus norvegicus, UniProt P70536)
- Construct: was homogenized, which was used as a membrane; from tissue; host or cells: uterine muscle membranes from diethylstilbestrol-treated animals
- Sequence (P70536 1-388): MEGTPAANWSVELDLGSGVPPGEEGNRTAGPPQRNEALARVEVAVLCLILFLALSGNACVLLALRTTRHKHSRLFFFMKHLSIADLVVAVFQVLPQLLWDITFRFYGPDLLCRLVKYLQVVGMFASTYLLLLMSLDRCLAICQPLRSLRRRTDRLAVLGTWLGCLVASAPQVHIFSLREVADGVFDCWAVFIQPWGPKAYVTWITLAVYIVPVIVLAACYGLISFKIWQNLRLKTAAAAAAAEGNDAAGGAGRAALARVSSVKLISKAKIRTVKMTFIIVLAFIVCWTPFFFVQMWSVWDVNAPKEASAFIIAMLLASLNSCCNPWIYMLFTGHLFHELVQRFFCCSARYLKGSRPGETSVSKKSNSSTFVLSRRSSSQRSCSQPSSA
- Experiment summary: Oxytocin receptor binding assay
- Details: [3H]-oxytocin 10^-9 M, 25°, one hour, pH 8.0, uterin muscle membrane, DES-treated
Reported endpoint: IC50 (nM)

COc1cc(NC(=O)c2ccccc2Cl)ccc1C(=O)N1CCCC(CC(=O)Nc2ccccc2Cl)c2cc(Cl)ccc21 (stereo not shown)    130
COc1cc(NC(=O)c2ccccc2Cl)ccc1C(=O)N1CCCC(OCCSc2nccc(C)n2)c2cc(Cl)ccc21 (stereo not shown)    4290
COc1cc(C(=O)N2CCCC(OCC(=O)NCCN3CCOCC3)c3cc(Cl)ccc32)ccc1NC(=O)c1ccccc1Br (stereo not shown)    85
C=CCN1CCN(C(=O)CC2CCCN(C(=O)c3ccc(NC(=O)c4ccccc4Cl)cc3OC)c3ccc(Cl)cc32)CC1 (stereo not shown)    100
COc1cc(C(=O)N2CCCC(OC(=O)[C@@H](N)CCCCN)c3cc(Cl)ccc32)ccc1NC(=O)c1ccccc1C (stereo partly shown)    1300

1. COc1cc(NC(=O)c2ccccc2Cl)ccc1C(=O)N1CCCC(OCCNC2CCCC2)c2cc(Cl)ccc21 (stereo not shown)
2. CCN(CC)CCOC1CCCN(C(=O)c2ccc(N3Cc4ccccc4C3=O)cc2)c2ccc(Cl)cc21 (stereo not shown)
// query # argmax over IC50 for candidates 1 and 2 Reply with the label of the item you choose.
// result 2
(2: 1790 nM, 1: 258 nM)

1. COc1cc(NC(=O)c2ccccc2Cl)ccc1C(=O)N1CCCC(OCC[S+]([O-])c2ncc[nH]2)c2cc(Cl)ccc21 (stereo not shown)
2. COc1cc(NC(=O)c2ccccc2Cl)ccc1C(=O)N1CCCC(OCCSc2ccncc2)c2cc(Cl)ccc21 (stereo not shown)
3. COc1cc(NC(=O)c2ccccc2Br)ccc1C(=O)N1CCCC(CC(=O)N2CCC(NC(C)=O)CC2)c2cc(F)ccc21 (stereo not shown)
4. COc1cc(NC(=O)c2ccccc2Cl)ccc1C(=O)N1CCCC(CC(=O)NCCC2CCCN2C)c2cc(Cl)ccc21 (stereo not shown)
// query List from greatest to least IC50. Please respond with the labels ordered as the question requires.
// result 2, 1, 3, 4
(2: 1000 nM, 1: 354 nM, 3: 99 nM, 4: 55 nM)

A. O=C(Nc1ccc(C(=O)N2CCCC(OCCO)c3cc(Cl)ccc32)cc1)c1ccccc1Cl (stereo not shown)
B. CN1CCN(C(=O)CC2CCCN(C(=O)c3ccc(NC(=O)c4ccccc4Cl)cc3)c3ccc(Cl)cc32)CC1 (stereo not shown)
C. Cc1ccccc1C(=O)Nc1ccc(C(=O)N2CCCC(CC(=O)N3CCNCC3)c3cc(Cl)ccc32)c(C)c1 (stereo not shown)
D. COc1cc(NC(=O)c2ccccc2Cl)ccc1C(=O)N1CCCC(CC(=O)N(C)CCO)c2cc(Cl)ccc21 (stereo not shown)
E. COc1cc(NC(=O)c2ccccc2Cl)ccc1C(=O)N1CCCC(CC(=O)N2CCN(CCO)CC2)c2cc(Cl)ccc21 (single isomer, unassigned)
// query Hey, quick one: sort these by IC50, largest value first please. Please respond by ranking the labels in the order requested.
// result C, B, A, E, D
(C: 2100 nM, B: 380 nM, A: 250 nM, E: 94 nM, D: 58 nM)

* * *

- Target or system: V1 Recepter (rat liver plasma membrane preparations) (Rattus norvegicus, UniProt P30560)
- Construct: rat liver plasma membrane preparations; from tissue; host or cells: rat liver plasma membranes
- Sequence (P30560 whole entry): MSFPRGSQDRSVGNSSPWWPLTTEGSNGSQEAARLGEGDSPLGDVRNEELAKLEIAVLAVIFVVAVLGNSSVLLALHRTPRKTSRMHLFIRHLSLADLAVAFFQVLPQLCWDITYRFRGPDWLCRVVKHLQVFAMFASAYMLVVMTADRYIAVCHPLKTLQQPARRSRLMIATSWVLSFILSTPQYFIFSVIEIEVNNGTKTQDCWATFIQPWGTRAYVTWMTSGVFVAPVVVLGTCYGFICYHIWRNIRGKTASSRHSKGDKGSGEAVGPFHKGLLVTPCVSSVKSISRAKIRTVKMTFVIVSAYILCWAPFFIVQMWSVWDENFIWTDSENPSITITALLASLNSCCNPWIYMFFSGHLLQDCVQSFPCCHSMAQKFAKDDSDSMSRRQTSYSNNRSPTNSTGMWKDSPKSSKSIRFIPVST
- Experiment summary: V1 Recepter binding assay
- Details: [3H]-Arg-vasopressin 2×10^-10 M, 37° C., 10 minutes, pH 8.0, rat liver plasma membrane
- Description: Test-1: V1 Recepter binding assay By using rat liver plasma membrane preparations prepared according to Ichiraha's method [by Akira Ichihara: J. Bio. […] The amount of [^3 H]-vasopressin combining with the membrane was measured by liquid scintillation counter and the rate of inhibitory effect of the test compound was calculated according to the following equation: […]
Reported endpoint: IC50 (nM)

# annotated cases, reported IC50 shown
C=CCN1CCN(C(=O)CC2CCCN(C(=O)c3ccc(NC(=O)c4ccccc4Cl)cc3OC)c3ccc(Cl)cc32)CC1 (stereo not drawn)    23
CCOC(=O)NCCOC1CCCN(C(=O)c2ccc(NC(=O)c3ccccc3Cl)cc2OC)c2ccc(Cl)cc21 (stereo not drawn)    17

A. COc1cc(NC(=O)c2ccccc2Cl)ccc1C(=O)N1CCCC(CC(=O)NCCN2CCCCC2)c2cc(Cl)ccc21 (stereo not drawn)
B. COc1cc(NC(=O)c2ccccc2Cl)ccc1C(=O)N1CCCC(OCCNC(C)=N)c2cc(Cl)ccc21 (stereo not drawn)
C. COc1cc(NC(=O)c2ccccc2Cl)ccc1C(=O)N1CCCC(NC(=O)c2ccccc2Cl)c2cc(Cl)ccc21 (stereo not drawn)
D. COc1cc(NC(=O)c2ccccc2Cl)ccc1C(=O)N1CCCC(OCCn2ccnc2)c2cc(Cl)ccc21 (stereo not drawn)
// query Rank the 4 molecules: largest IC50 first, smallest last. List each label, following the requested order.
// result C, D, B, A

* * *

- Target or system: V1 Recepter (rat liver plasma membrane preparations) (Rattus norvegicus, UniProt P30560)
- Construct: rat liver plasma membrane preparations; from tissue; host or cells: rat liver plasma membranes
- Experiment summary: V1 Recepter binding assay
- Details: [3H]-Arg-vasopressin 2×10^-10 M, 37° C., 10 minutes, pH 8.0, rat liver plasma membrane
Reported endpoint: IC50 (nM)

COc1cc(NC(=O)c2ccccc2Cl)ccc1C(=O)N1CCCC(CC(=O)NCCc2ccccn2)c2cc(Cl)ccc21 (stereo not shown)    18

a. COc1cc(NC(=O)c2ccccc2Cl)ccc1C(=O)N1CCCC(OCC[S+]([O-])c2ccncc2)c2cc(Cl)ccc21 (stereo not shown)
b. COc1cc(C(=O)N2CCCC(CC(=O)NCCN3CCOCC3)c3cc(Cl)ccc32)ccc1NC(=O)c1ccccc1Br (stereo not shown)
c. C=CCNCCOC1CCCN(C(=O)c2ccc(NC(=O)c3ccccc3Cl)cc2OC)c2ccc(Cl)cc21 (stereo not shown)
// query Which order do these items take when sorted by rising IC50? List them. Put the labels in the requested order and write them down.
// result b, c, a
(b: 2.6 nM, c: 7 nM, a: 13 nM)

* * *

- Target or system: V1 Recepter (rat liver plasma membrane preparations) (Rattus norvegicus, UniProt P30560)
- Construct: rat liver plasma membrane preparations
- Experiment summary: V1 Recepter binding assay
- Details: [3H]-Arg-vasopressin 2×10^-10 M, 37° C., 10 minutes, pH 8.0, rat liver plasma membrane
Reported endpoint: IC50 (nM)

Guide cases for IC50, answers given:
COc1cc(NC(=O)c2ccccc2Cl)ccc1C(=O)N1CCCC(CC(=O)N2CCN(CC#N)CC2)c2cc(Cl)ccc21 (centres unmarked)    16
COc1cc(NC(=O)c2ccccc2Cl)ccc1C(=O)N1CCCC(OCCNC(N)=O)c2cc(Cl)ccc21 (centres unmarked)    37
COc1cc(NC(=O)c2ccccc2Cl)ccc1C(=O)N1CCCC(CC(=O)N2CCN(CCO)CC2)c2cc(Cl)ccc21 (single isomer, unassigned)    16
CCN(CC)CCN(C)C(=O)CC1CCCN(C(=O)c2ccc(NC(=O)c3ccccc3Br)c(OC)c2)c2ccc(Cl)cc21 (centres unmarked)    2.6
CCN1CCN(C(=O)CCOC2CCCN(C(=O)c3ccc(N4Cc5ccccc5C4=O)cc3)c3ccc(Cl)cc32)CC1 (centres unmarked)    90
COc1cc(NC(=O)c2ccccc2Cl)ccc1C(=O)N1CCCC(OCCSc2nccc(C)n2)c2cc(Cl)ccc21 (centres unmarked)    280
COc1cc(C(=O)N2CCCC(OCC(=O)NCCN3CCCCC3)c3cc(Cl)ccc32)ccc1NC(=O)c1ccccc1Br (centres unmarked)    5.5
COc1cc(NC(=O)c2ccccc2Cl)ccc1C(=O)N1CCCC(OCCSc2ncc[nH]2)c2cc(Cl)ccc21 (centres unmarked)    56

A. COc1cc(NC(=O)c2ccccc2Cl)ccc1C(=O)N1CCCC(CC(=O)NCCN(C)C)c2cc(Cl)ccc21 (centres unmarked)
B. COc1cc(NC(=O)c2ccccc2Cl)ccc1C(=O)N1CCCC(OCCSc2ccncc2)c2cc(Cl)ccc21 (centres unmarked)
C. COc1cc(C(=O)N2CCCC(OCC(=O)N3CCCN(C)CC3)c3cc(Cl)ccc32)ccc1NC(=O)c1ccccc1Br (centres unmarked)
D. COc1cc(NC(=O)c2ccccc2Br)ccc1C(=O)N1CCCC(OCCNS(=O)(=O)C(F)(F)F)c2cc(Cl)ccc21 (centres unmarked)
// query hey, can you rank those molecules up there by IC50? biggest number first please Your task in answering is to list the labels in the requested order.
// result B, D, A, C
(B: 120 nM, D: 41 nM, A: 9 nM, C: 4.8 nM)

P. COc1cc(NC(=O)c2ccccc2Cl)ccc1C(=O)N1CCCC(CC(=O)N2CCN(CC(O)CNC(C)C)CC2)c2cc(Cl)ccc21 (centres unmarked)
Q. CNC(=O)N1CCN(CCC2CCCN(C(=O)c3ccc(NC(=O)c4ccccc4Cl)cc3OC)c3ccc(Cl)cc32)CC1 (centres unmarked)
// query Select one: P or Q . Criterion: greater recorded IC50. Mark your selection by writing its label.
// result Q
(Q: 54 nM, P: 7 nM)
